The measured values listed here are drawn from ChEMBL document CHEMBL1143995.

- Tested Target: Autotaxin (Homo sapiens) (UniProt Q13822);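 also: activity read as cleavage of a fluorescent lysophosphatidylcholine analog by autotaxin expressed in the cells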
- Reported Conditions: MDA-MB-435, at 10 µM
- Description: Inhibition of human autotaxin expressed in MDA-MB-435 cells assessed as fluorescent lysophosphatidyl choline analog hydrolysis at 10 uM
// reported inhibition for each item listed
State just the number; it will be interpreted in %.

Compound | Tested Target | inhibition / %
O=C(O)c1cc(NC(=O)c2ccc3c(c2)C(=O)N(CC2CCCO2)C3=O)cc(C(=O)O)c1 (configuration not stated) | Autotaxin (Homo sapiens) (UniProt Q13822) | 71
O=C(O)c1ccc(Oc2ccc(C(=O)c3ccc4c(c3)C(=O)N(c3ccccc3C(=O)O)C4=O)cc2)cc1 | Autotaxin (Homo sapiens) (UniProt Q13822) | 71
Cc1ccc(/N=N/c2cc(C)ccc2NC(=O)c2ccc(Oc3ccc(C(=O)Nc4ccc(C)cc4/N=N/c4ccc(C)cc4)cc3)cc2)cc1 | Autotaxin (Homo sapiens) (UniProt Q13822) | 93
O=C(O)c1ccc2c(c1)C(=O)N(c1ccc(C(=O)OCC(=O)c3ccccc3)cc1)C2=O | Autotaxin (Homo sapiens) (UniProt Q13822) | 71
COCC(=O)N1N=C(c2cccc(NS(C)(=O)=O)c2)CC1c1cccc([N+](=O)[O-])c1 (configuration not stated) | Autotaxin (Homo sapiens) (UniProt Q13822) | 85
Oc1ccc(/N=N/c2ccccc2Br)cc1/C=N/c1ccc(I)cc1 | Autotaxin (Homo sapiens) (UniProt Q13822) | 87
O=C(/C=C/c1cccs1)NC(=S)N1CCCCCC1 | Autotaxin (Homo sapiens) (UniProt Q13822) | 88
COc1ccc(N2C(=O)c3ccc(C(=O)Nc4cccc(C(=O)O)c4)cc3C2=O)cc1 | Autotaxin (Homo sapiens) (UniProt Q13822) | 58

Next compound, please.
If you can, please state the reported inhibition value of CC(C)(C)c1ccc(C(=O)NC(=S)N2CCCC2)cc1 . 76
